B1: TSN (parent)
chain: FVELQGFLAAEQDIREEIRKVVQS

Variants of: B1
Experiment: protein stability index of a GFP-peptide fusion (GPS, HEK-293T) (PSI 1-6); higher = more stable;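 note: lentivirally expressed fusions sorted by FACS into six bins by GFP to DsRed ratio, PSI derived from sequencing read proportions per bin multiplied by bin number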
Settings: c terminus: a fixed tail appended
Answer each item with its documented protein stability index.
Write the value as a bare number.

Annotate the variant `E11N` with its measured protein stability index.
2.16

Find the measured protein stability index of `V2E` and report it.
3.95

State its protein stability index for this variant: `L4K`
1.8

# return recorded protein stability index for input `F1L`
4.18

Specify reported protein stability index for the variant shown: `G6F`
1.68

Using known records, supply protein stability index for `G6T`
2.32

Complete the entry with protein stability index for `E17L`
2.69

Check the records and state protein stability index for `E3S`
2.08

Name the recorded protein stability index of the variant listed here: `V2N`
3.06

Check the records and state protein stability index for `E11C`
1.92

Fill in protein stability index for record `Q23I`
1.25

Read the entry `V2G` and write its reported protein stability index.
1.75

Supply measured protein stability index of `G6M` in your reply.
2.16

Tell me protein stability index reported for `R19A`
2.44

Return protein stability index (reported value) for this variant: `E3P`
1.53

Please report protein stability index for the following variant: `I18Y`
2.13

Supply measured protein stability index of `E11I` in your reply.
1.86

Consider the variant `L4E` . State its measured protein stability index.
2.17

Give the reported protein stability index for this variant. `E16L`
1.76

State, in one line, measured protein stability index of `A9M`
1.78

Identify measured protein stability index corresponding to `L8C`
1.83

Give me measured protein stability index, please, for this variant: `A10F`
2.15

Provide only the value of recorded protein stability index for `F7R`
2.04

In one line, give reported protein stability index of the entry `E3Y` .
1.64

Please give the documented protein stability index of `V21G`
1.69

Specify protein stability index for `F7C` and stop.
2.68

Let me know recorded protein stability index for `E3N` , thanks.
2.45

Tell me measured protein stability index for `F7K` please.
1.31

Let me know recorded protein stability index for `R15S` , thanks.
1.98

# return recorded protein stability index for input `R15Y`
1.76

Provide protein stability index value for the following variant: `R15M`
1.83

For the variant `E11K` , report protein stability index.
2.13

Return value of protein stability index for input `V2S` , no commentary.
1.65

Consider the variant `G6N` and give its recorded protein stability index.
2.42

Return protein stability index for the following variant: `Q12K`
2.24

Report protein stability index for `I18A`
1.82

Output protein stability index of `L4D`
2.22

Report protein stability index, nothing else, for this variant: `Q12V`
2.6

Please give the documented protein stability index of `V22H`
2.65

Give protein stability index for the following variant: `V21S`
1.45

Note down protein stability index recorded for `Q5V`
2.38

Using the record for `A9R` , state its measured protein stability index.
1.93

Tell me measured protein stability index for `V22Q` please.
4.66

Provide only the value of recorded protein stability index for `G6E`
2.06

Write down protein stability index measured for item `E3C`
2.23

Indicate its recorded protein stability index; the variant in question is `V22C`
3

Query protein stability index for `V2D`
4.19

Give a short answer stating reported protein stability index for `Q5W` .
1

Indicate its recorded protein stability index; the variant in question is `E11A`
1.05

For `Q12A` , write its protein stability index.
3.3

Return reported protein stability index. Input variant: `L4Q`
1.35

State, in one line, measured protein stability index of `A9N`
2.25

Supply recorded protein stability index for `R19D` here.
1.6

Tell me protein stability index reported for `V2M`
2.3

Please give measured protein stability index of the following entry: `L8D`
2.68

Provide one value: measured protein stability index of `L4W`
1.21

Provide protein stability index value for the following variant: `L4H`
1.52

Provide measured protein stability index value, entry: `G6I`
2.19

Identify measured protein stability index corresponding to `A10D`
1.35

Give reported protein stability index value for `F7H`
2.14

Determine its reported protein stability index: `A9Q`
1.63

Note protein stability index for the variant shown: `R19G`
3

Indicate its recorded protein stability index; the variant in question is `L8S`
1.47

Retrieve protein stability index measured for `K20A` and print it.
2.27

Check the records and state protein stability index for `F7G`
2.33
